Assignment: determine reported IC50 for the given molecules.
subjectOfTest: S. aureus, PDF enzyme (Staphylococcus aureus, UniProt P68826)
Sequence (P68826 whole entry): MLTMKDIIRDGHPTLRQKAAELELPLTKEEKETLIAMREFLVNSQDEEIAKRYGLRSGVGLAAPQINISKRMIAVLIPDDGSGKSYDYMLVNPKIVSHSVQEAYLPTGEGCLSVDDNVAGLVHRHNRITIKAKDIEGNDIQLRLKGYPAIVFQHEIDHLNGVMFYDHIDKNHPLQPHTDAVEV
protocolText: Bacterial peptide deformylase (PDF) assay, colorimetric cell free, f-Met-Ala substrate, TNBS detection at 420 nm
Type: biochemical
assaySetup: means of three experiments; 30 minutes at room temperature, pH 7.2; read-out: PDF enzyme inhibitory activity IC50, S. aureus, PDF enzyme
Write the answer as a number in nM, unit excluded.

Exercise: Tell me its IC50 given O=C(NO)c1cc(CSc2ccc(Cl)cc2)on1 [Example 2] as the entry.
Key: 1300

Exercise: Tell me its IC50 given O=C(NO)c1cc(CSc2ccccc2Br)on1 [Example 6] as the entry.
Key: 4900

Exercise: Tell me its IC50 given O=C(NO)c1cc(CS(=O)(=O)c2cccc(Cl)c2)on1 [Example 35] as the entry.
Key: 1700

Exercise: Tell me its IC50 given COc1cccc(SCc2cc(C(=O)NO)no2)c1 [Example 11] as the entry.
Key: 2200

Exercise: Tell me its IC50 given O=C(NO)c1cc(CSc2ccc(F)cc2)on1 [Example 12] as the entry.
Key: 1500

Exercise: Tell me its IC50 given O=C(NO)c1cc(CSCc2cccc(C(F)(F)F)c2)on1 [Example 17] as the entry.
Key: 2200

---

subjectOfTest: S. aureus, PDF enzyme (Staphylococcus aureus)
Cut-off 3 µM on IC50: below means label 1, at or above means label 0.

Exercise: Determine whether this molecule shows IC50 lower than 3 µM (ties excluded): Cc1ccc(S(=O)(=O)Cc2cc(C(=O)NO)no2)cc1
Key: label 1

Exercise: Determine whether this molecule shows IC50 lower than 3 µM (ties excluded): O=C(NO)c1cc(CSc2cccc(Br)c2)on1
Key: label 1

Exercise: Determine whether this molecule shows IC50 lower than 3 µM (ties excluded): O=C(NO)c1cc(CSc2ccccc2C(F)(F)F)on1
Key: label 0

Exercise: Determine whether this molecule shows IC50 lower than 3 µM (ties excluded): CC(C)c1ccccc1S(=O)(=O)Cc1cc(C(=O)NO)no1
Key: label 0

Exercise: Determine whether this molecule shows IC50 lower than 3 µM (ties excluded): Cc1ccc(SCc2cc(C(=O)NO)no2)cc1
Key: label 0

---

subjectOfTest: S. aureus, PDF enzyme (Staphylococcus aureus)
Cut-off 2 µM on IC50: below means 1.0, at or above means 0.0.

Exercise: Determine whether this molecule shows IC50 lower than 2 µM (ties excluded): O=C(NO)c1cc(CSc2cccc(Cl)c2)on1
Key: 0.0

Exercise: Determine whether this molecule shows IC50 lower than 2 µM (ties excluded): O=C(NO)c1cc(CSc2ccc(C(F)(F)F)cc2)on1
Key: 0.0

Exercise: Determine whether this molecule shows IC50 lower than 2 µM (ties excluded): Cc1cc(C)c(SCc2cc(C(=O)NO)no2)c(C)c1
Key: 0.0

Exercise: Determine whether this molecule shows IC50 lower than 2 µM (ties excluded): O=C(NO)c1cc(CSCc2cc3ccccc3s2)on1
Key: 0.0

Exercise: Determine whether this molecule shows IC50 lower than 2 µM (ties excluded): COc1cccc(S(=O)(=O)Cc2cc(C(=O)NO)no2)c1
Key: 0.0

Exercise: Determine whether this molecule shows IC50 lower than 2 µM (ties excluded): O=C(NO)c1cc(CS(=O)(=O)c2ccc(Cl)cc2)on1
Key: 1.0

Exercise: Determine whether this molecule shows IC50 lower than 2 µM (ties excluded): CC(C)c1ccccc1SCc1cc(C(=O)NO)no1
Key: 0.0

Exercise: Determine whether this molecule shows IC50 lower than 2 µM (ties excluded): O=C(NO)c1cc(CSc2ccccc2Cl)on1
Key: 0.0

Exercise: Determine whether this molecule shows IC50 lower than 2 µM (ties excluded): Cc1ccc([S+]([O-])Cc2cc(C(=O)NO)no2)cc1 (stereo not shown)
Key: 1.0
